The reported measurements were obtained from patent US20140120095A1.

TARGET_OR_TEST_SYSTEM: T1, recombinant mouse DLL4 (mouse, UniProt Q9JI71 27-532)
T1 construct: extracellular domain; also called rmDLL4; mDLL4
T1 sequence (Q9JI71 27-532): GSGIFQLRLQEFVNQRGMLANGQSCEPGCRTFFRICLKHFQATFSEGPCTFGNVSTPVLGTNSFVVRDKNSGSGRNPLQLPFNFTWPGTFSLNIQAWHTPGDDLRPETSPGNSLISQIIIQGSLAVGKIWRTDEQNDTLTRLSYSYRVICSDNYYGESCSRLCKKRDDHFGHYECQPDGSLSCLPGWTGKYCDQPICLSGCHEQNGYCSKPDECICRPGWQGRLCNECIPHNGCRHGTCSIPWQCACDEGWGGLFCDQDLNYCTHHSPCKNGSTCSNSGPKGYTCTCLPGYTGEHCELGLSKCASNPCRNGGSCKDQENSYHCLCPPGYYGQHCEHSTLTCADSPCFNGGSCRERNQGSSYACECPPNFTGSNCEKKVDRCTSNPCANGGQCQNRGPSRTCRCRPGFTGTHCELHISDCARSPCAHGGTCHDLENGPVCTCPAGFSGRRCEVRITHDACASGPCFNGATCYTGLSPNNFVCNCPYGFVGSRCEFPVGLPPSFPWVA
RUN_DESCRIPTION: binding ELISA, coated rmDLL4
# reported EC50; entries follow

BINDER: DLLBII62C11 (VHH) VHH: EVQLMESGGGLVQPGGSLRLSCVAAGFTFSNYYMSWVRQAPGKGLEWVSVISPDGSNTYYADTVKGRFTISRGNAKNTLFLQMTGLKSEDAAVYYCARGSGSWGVHGQGTQVTVSS
EC50 [nM]: 13.1
--
BINDER: DLLBII57C11 (VHH) VHH: EVQLVESGGGLVQPGGSLRLSCTASGFTFDDYAIGWFRQAPGKEPEGISCISSSGSITYDADSVKGRFTISRDNAKNTVYLQMNSLKPEDTAVYYCATPGIAACRGIHYWGQGTQVTVSS
EC50 [nM]: 83.4
